target: ZFP SBS#512 (synthetic); assay: EMSA; conditions: tags: MBP fusion
Sequence (chain, as listed by the source): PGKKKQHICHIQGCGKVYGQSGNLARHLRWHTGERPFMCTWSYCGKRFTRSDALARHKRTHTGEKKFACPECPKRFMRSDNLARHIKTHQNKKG
pKd: −log10 of the molar value.

{"columns": ["BINDER", "pKd"],
 "data": [
  ["GAGGTGGAAG (dsDNA) DNA 1: GAGGTGGAAG DNA 2: CTTCCACCTC", 8.00]
]}
